# System: A549/ATCC NSCLC
# method-description: NCI-60 one-dose screen, 48 h
# condition-context: 10 µM unless noted
# Protocol: Growth inhibition of the A549/ATCC human Non-Small Cell Lung tumor cell line is measured as a screen for anti-cancer activity. Cells are grown in 96 well plates and exposed to the test compound for 48 hours. Compounds are tested at a single concentration, which is 10^-5 M for most compounds. The reported endpoint is percent growth (GI% or GIPRCNT), where numbers from 0 - 100% represent growth inhibition, and numbers from -100% - 0 represent cell death. […]
About 83,000 compounds went through this panel and 20% of them were active in at least one assay; those are over-represented in the sample as a whole. The source made the active and inactive calls. Rule for the calls: active = growth percent below 10; inactive = the rest.
Answer with one of the outcomes given here: active, inactive

Examples from the recorded data:
[[record]]
smiles_structure = "NC(=NCCCC1(c2ccccc2)CCCC1)Nc1ccc(Cl)cc1"
discrete_label = "inactive"

[[record]]
smiles_structure = "c1ccc(-c2c(-c3ccccc3)[n+](Cc3ccc4ccccc4c3)c(-c3ccc(-c4nc5ccccc5s4)cc3)n2Cc2ccc3ccccc3c2)cc1"
discrete_label = "active"

[[record]]
smiles_structure = "O=c1ccccc(-c2ccc(Br)cc2)c1O"
discrete_label = "inactive"

[[record]]
smiles_structure = "CC1=C/C(=C(\\c2ccc(N(C)C)cc2)c2ccc([N+](C)(C)C)cc2)C=CC1=[N+](C)C"
discrete_label = "inactive"

[[record]]
smiles_structure = "Cc1cn2c(/C=C3/C(=O)Nc4c3ccc3ccccc43)c(C(F)(F)F)nc2s1"
discrete_label = "inactive"


Any idea what this test logged for "COc1ccc(-c2nc3ccc(-c4nc5ccc(N6CCN(c7ccccc7)CC6)cc5[nH]4)cc3[nH]2)cc1OC" ?
active

What is the recorded call for this molecule in the test? "CS(=O)(=O)c1ccc(-n2nc(-c3ccc(Br)cc3)c3ccccc3c2=O)cc1"
inactive

* * *

Each item that follows carries a reported growth.
# System: MCF7 breast
# method-description: NCI-60 one-dose screen, 48 h (100 = growth as untreated, 0 = no growth, -100 = all killed)
# condition-context: 10 µM unless noted
This is part of a sample that, as a whole, favours compounds with a hit. Of some 83,000 tested, about 20% had one in any assay.
Kindly answer with a numeric value in %, unit omitted.

Worked cases, growth given:
[[record]]
compound = "Oc1cccc(-c2nc(N3CCOCC3)c3c4c(sc3n2)CCCC4)c1"
reported_endpoint = "growth"
units = "%"
reported = 42

[[record]]
compound = "OCCNc1nccc(N2CCN(c3ccnc4cc(Cl)ccc34)CC2)n1"
reported_endpoint = "growth"
units = "%"
reported = 34.2

[[record]]
compound = "COc1cccc(-c2nc(SCC(=O)Nc3ccc(C(=O)/C=C/c4ccc(OC)c(OC)c4)cc3)[nH]c(=O)c2C#N)c1"
reported_endpoint = "growth"
units = "%"
reported = 82.4

[[record]]
compound = "COc1ccc(/C=C/c2nc3ccccc3nc2/C=C/c2ccc(OC)cc2)cc1"
reported_endpoint = "growth"
units = "%"
reported = 80.9


Please find the next compound below.
Give me measured growth, please, for this compound: C/C1=C\CC[C@@]2(C)O[C@H]2[C@H]2OC(=O)C(CN3CCN(CC4C(=O)O[C@H]5[C@H]4CC/C(C)=C/CC[C@@]4(C)O[C@@H]54)CC3)[C@@H]2CC1 (stereo not given in full)
74.4

* * *

# Test system: HCC-2998 colon
# method-description: NCI-60 one-dose screen, 48 h
# condition-context: 10 µM unless noted
The panel holds about 83,000 compounds, 20% with a hit somewhere; the sample as a whole holds those more often. Calls of active or inactive are those of the source. Rule for the calls: active = growth percent below 10; inactive = the rest.
Could you please pick one outcome from this set? active, inactive

Examples with answers:
[[record]]
compound = "CC(=O)NCC1c2c(n(C)c3c(Cl)c(Cl)ccc23)C(=O)NC1(C)C (stereo unspecified)"
target_or_system = "HCC-2998 colon"
discrete_label = "inactive"

[[record]]
compound = "O=C1OC(c2ccccc2)C(O)=C1c1ccccc1 (stereo unspecified)"
target_or_system = "HCC-2998 colon"
discrete_label = "inactive"

[[record]]
compound = "CC1=C(O)C(=O)C(C(C#N)(C#N)C(C#N)C#N)C1 (stereo unspecified)"
target_or_system = "HCC-2998 colon"
discrete_label = "inactive"


What did this assay record as the result for "C#Cc1cccc(NC(=O)c2ccccc2NC(=O)CCl)c1" ?
inactive

What is the recorded call for this compound in the test? "CCOC(=O)c1c(C(=O)OCC)c2cc(-c3ccn4c(C(=O)c5ccccc5)c(C(=O)OCC)c(C(=O)OCC)c4c3)ccn2c1C(=O)c1ccccc1"
inactive

Assay outcome for C=C(C)C1CC(O)C2(C)CCCC3C2C1CC(C)C3(C)CC/C(C)=C/C(O)C1CCC(=O)c2c(OC)cc(OC)cc21 (stereo unspecified) : what was it?
inactive

State the result this test recorded for "NC(=O)c1cc(Br)ccc1NC(=O)/C=C/c1ccccc1" .
inactive

Assay result, entry "COc1cc(/C=C/C(=O)c2c(C)oc3nc[nH]c(=O)c23)cc(OC)c1OC" — outcome?
inactive

Please let me know the test result on file for "O=C1C=C(O)C(=O)C(CC2=C(O)C(=O)C=C(O)C2=O)=C1O" .
inactive

Outcome logged for "Cc1ccc(NS(=O)(=O)c2ccc(-c3cnc(C4CC4)o3)cc2)cc1C" in this assay:
inactive

Please share the test call associated with "COc1ccc(/C=C/c2nc3ccccc3nc2/C=C/c2ccc(OC)cc2)cc1" .
inactive

Can you look up the reported call for Cc1ccc2c(C(C[N+](=O)[O-])c3ccccc3)c(-c3ccccc3)[nH]c2c1 (stereo unspecified) for me?
inactive

Call for entry CCOC(=O)C(C)(C#N)C1C=CCCC1 (stereo unspecified) :
inactive

How was "O=S(=O)(Nc1ccc(NS(=O)(=O)c2ccccc2)c(Cl)c1)c1ccccc1" classified in this test?
inactive

Which outcome was assigned to "O=C1c2ccccc2OC=C(c2ccccc2)N1CCCCNc1ccc(S(=O)(=O)Nc2ncccn2)cc1" in this test?
inactive

What did this assay record as the result for "N#C/C(=C\c1ccc(-c2cc(C(F)(F)F)ccc2Cl)o1)c1nc(-c2ccco2)cs1" ?
inactive

Which result was noted for this compound in the test: "COc1ccc(/C=C(\C#N)C(=O)Nc2cccc(Nc3nc(SC)nc(-c4cccc([N+](=O)[O-])c4)c3C#N)c2)cc1OC"
inactive

* * *

# Test system: NCI-H322M lung
# method-description: NCI-60 one-dose screen, 48 h (100 = growth as untreated, 0 = no growth, -100 = all killed)
# condition-context: 10 µM unless noted
The panel holds about 83,000 compounds, 20% with a hit somewhere; the sample as a whole holds those more often.
The reader will find reported growth values listed item by item below.
All answers are understood in %, so give the number only.

// known answers, use as guide
[[record]]
smiles_structure = "COC(=O)[C@]12CCC(C)(C)C[C@H]1[C@H]1C(=O)C[C@@H]3[C@@]4(C)c5c([nH]c6ccccc6c5=O)C(C)(C)[C@@H]4CC[C@@]3(C)[C@]1(C)CC2"
reported_endpoint = "growth"
units = "%"
reported = 90.4

[[record]]
smiles_structure = "O=C1/C(=C/c2ccc(OCCCOc3ccc(Cl)cc3)cc2)N=C2SCCCN12"
reported_endpoint = "growth"
units = "%"
reported = 103

[[record]]
smiles_structure = "COc1cc(/C=C/C(=O)c2c(C)oc3nc[nH]c(=O)c23)cc(OC)c1OC"
reported_endpoint = "growth"
units = "%"
reported = 85.8

[[record]]
smiles_structure = "COc1cc2c(cc1O)CC[C@@H]1[C@@H]2CC[C@]2(C)[C@@H](OCCN(C)C)CC[C@@H]12"
reported_endpoint = "growth"
units = "%"
reported = 51.3

[[record]]
smiles_structure = "O=C1C=C(O)C(=O)C(CC2=C(O)C(=O)C=C(O)C2=O)=C1O"
reported_endpoint = "growth"
units = "%"
reported = 105


Turning now to a further compound:
Answer with the recorded growth for the compound listed here: "CCOC(=O)c1sc(Nc2ccc(Cl)cc2)nc1C"
53.4

* * *

# Test system: HCT-15 colon
# method-description: NCI-60 one-dose screen, 48 h
# condition-context: 10 µM unless noted
This is part of a sample that, as a whole, favours compounds with a hit. Of some 83,000 tested, about 20% had one in any assay. Active and inactive are the calls of the source. The calls were made as follows: active = growth percent below 10; inactive = the rest.
Your response should consist of one outcome taken from active, inactive

What was the test verdict on "Cc1cc2nc(NC(=O)CN3CCN(CCN4C(=O)c5cccc6cccc(c56)C4=O)CC3)sc2cc1C" ?
inactive

Check the results log: what was the call for "COc1ccc(-c2nc3ccc(-c4nc5ccc(N6CCN(c7ccc(F)cc7)CC6)cc5[nH]4)cc3[nH]2)cc1OC" ?
inactive

Assay result, entry COc1cc2c(cc1OC)C(Sc1ccc(SC)cc1)c1c(nc(N)c(C#N)c1N)O2 (stereo not given) — outcome?
active

Short answer needed: outcome of this test for "Cn1cc(C(=O)c2nc(-c3c[nH]c4ccc(F)cc34)no2)c2cc(F)ccc21" ?
inactive

Entry "CC(=O)OC[C@H]1O[C@H](OC(C)=O)[C@H](NC(=O)/C=C/CCl)[C@@H](OC(C)=O)[C@@H]1OC(C)=O" : call = ?
inactive
